- Test system: Kochia (Kochia scoparia)
- assay-method-text: Test A postemergence
- Assay type: in vivo
- test-settings: Bassia scoparia, post-emergence, 240 h, 500 g ai/ha, postemergence; 0 to 100 scale, 0 is no effect, 100 is complete control; read-out: Kochia plant response rating
Could you please report measured pest or weed control at 500 g/ha for the items listed next?

Request: Indicate its recorded pest or weed control at 500 g/ha; the molecule in question is "O=C1NC[C@H](c2ccc3c(c2)OCO3)[C@H]1C(=O)Nc1cccc(F)c1C(F)(F)F"
Result: 0%

Request: Identify measured pest or weed control at 500 g/ha corresponding to "Cc1nc([C@H]2CNC(=O)[C@@H]2C(=O)Nc2cccc(F)c2F)cs1"
Result: 0%

Request: Query pest or weed control at 500 g/ha for "CN1C[C@H](c2ccc3c(c2)OCO3)[C@@H](C(=O)Nc2cccc(F)c2F)C1=O"
Result: 70%

Request: Provide measured pest or weed control at 500 g/ha value, entry: CN1C[C@H](c2ccc(F)c(F)c2)[C@@H](C(=S)Nc2ccccc2F)C1=O (racemic)
Result: 0%

Data provenance: patent US12077503B2
